molecular target: PRMT6 (Homo sapiens); assay: In vitro enzyme selectivity assay, PRMT6; type: biochemical; conditions: in duplicate
Sequence (Q96LA8 whole entry, species assumed): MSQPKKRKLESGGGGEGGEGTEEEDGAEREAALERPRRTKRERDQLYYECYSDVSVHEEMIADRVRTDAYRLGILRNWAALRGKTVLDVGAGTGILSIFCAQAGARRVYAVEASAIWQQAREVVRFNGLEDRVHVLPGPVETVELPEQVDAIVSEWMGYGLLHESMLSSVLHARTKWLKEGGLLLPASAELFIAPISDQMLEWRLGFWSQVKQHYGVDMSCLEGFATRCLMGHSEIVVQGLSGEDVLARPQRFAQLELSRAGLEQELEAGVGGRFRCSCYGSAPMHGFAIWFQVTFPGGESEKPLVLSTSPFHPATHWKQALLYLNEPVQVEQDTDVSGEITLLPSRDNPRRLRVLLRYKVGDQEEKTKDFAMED
# IC50 per record follows
Measured Parameter: IC50 (µM)

INSERT INTO measurements (input_smiles, number) VALUES
  ('CCOC(=O)c1c2c3ccccc3c3ccccc3c2cc2[n+]1CCc1ccccc1-2', 47),
  ('O=C(c1ccccc1)c1c2c(cc3sc4ccccc4[n+]13)-c1cccc3cccc-2c13', 41);

====

target: PRMT1 (Homo sapiens); experiment: In vitro enzyme selectivity assay, PRMT1; type: biochemical; settings: in duplicate
Sequence (Q99873 whole entry, species assumed): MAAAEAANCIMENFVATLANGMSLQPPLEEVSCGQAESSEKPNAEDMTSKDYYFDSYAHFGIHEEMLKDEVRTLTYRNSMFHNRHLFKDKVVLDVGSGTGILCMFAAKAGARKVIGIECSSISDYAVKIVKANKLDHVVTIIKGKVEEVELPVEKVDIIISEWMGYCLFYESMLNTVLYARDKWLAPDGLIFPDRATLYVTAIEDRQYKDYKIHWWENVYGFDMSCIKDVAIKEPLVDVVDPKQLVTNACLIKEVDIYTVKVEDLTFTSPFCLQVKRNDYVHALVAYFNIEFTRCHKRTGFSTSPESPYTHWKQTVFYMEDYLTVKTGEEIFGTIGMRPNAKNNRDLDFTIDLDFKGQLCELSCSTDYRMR
Below, each of the molecules is paired with its reported IC50 value.
Measured Parameter: IC50 (µM)

INSERT INTO results (molecule, measured_parameter, unit_info, number) VALUES
  ('O=C(c1ccccc1)c1c2c(cc3sc4ccccc4[n+]13)-c1cccc3cccc-2c13 [DC_C11]', 'IC50', 'µM', 36),
  ('CCOC(=O)c1c2c3ccccc3c3ccccc3c2cc2[n+]1CCc1ccccc1-2 [DC_C66]', 'IC50', 'µM', 21);

====

biological target: CARM1 (Homo sapiens); assay: AlphaLISA CARM1 enzyme inhibition assay; type: biochemical; conditions: biotinylated H3 peptide 50 nM, SAM 300 nM, enzyme 0.1 nM, in duplicate
Sequence (Q86X55 whole entry): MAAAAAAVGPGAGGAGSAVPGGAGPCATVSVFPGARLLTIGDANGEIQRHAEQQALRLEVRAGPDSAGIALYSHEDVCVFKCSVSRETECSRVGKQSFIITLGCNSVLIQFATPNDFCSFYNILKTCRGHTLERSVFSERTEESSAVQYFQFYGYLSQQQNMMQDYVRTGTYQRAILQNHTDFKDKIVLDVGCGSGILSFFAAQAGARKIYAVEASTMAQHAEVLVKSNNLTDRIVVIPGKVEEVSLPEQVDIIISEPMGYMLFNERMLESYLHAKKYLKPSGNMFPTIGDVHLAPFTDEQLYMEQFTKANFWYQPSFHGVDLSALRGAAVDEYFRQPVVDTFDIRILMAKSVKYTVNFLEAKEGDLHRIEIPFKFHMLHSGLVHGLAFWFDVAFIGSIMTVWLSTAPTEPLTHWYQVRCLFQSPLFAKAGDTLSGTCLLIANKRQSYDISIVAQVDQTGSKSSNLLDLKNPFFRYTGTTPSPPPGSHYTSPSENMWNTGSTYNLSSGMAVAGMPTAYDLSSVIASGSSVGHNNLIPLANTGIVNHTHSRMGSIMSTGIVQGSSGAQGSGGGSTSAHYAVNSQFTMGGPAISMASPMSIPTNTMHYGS
Measured IC50 of individual entries
Measured Parameter: IC50 (µM)

INSERT INTO measurements (compound, measured_parameter, number) VALUES
  ('CCOC(=O)c1c2c3ccccc3c3ccccc3c2cc2[n+]1CCc1ccccc1-2 [DC_C66]', 'IC50', 1.8),
  ('O=C(c1ccccc1)c1c2c(cc3sc4ccccc4[n+]13)-c1cccc3cccc-2c13 [DC_C11]', 'IC50', 15);
